Cited source for all entries: PubChem BioAssay (NCI)

Test system: OVCAR-8 ovarian
assayInfo: NCI tumour cell line growth inhibition, 48 h
Field: TGI. Provide a value for each of the compounds that follow.

> print(dat)
                                  molsmiles  reportedvalue
1              S=C(SSC(=S)N1CCCCC1)N1CCCCC1        60.9 µM
2  C[C@]12CCC(=O)C[C@@H]1CC[C@@H]1[C@@H]2CC[C@]2(C)[C@@H](OC(=O)N(CCCl)N=O)CC[C@@H]12          24 µM
3           O=c1[nH]cnc2c1cnn2Cc1cnnn1COCCO       > 100 µM

For record `COC(=O)c1cc(-c2ccc(S(C)(=O)=O)cc2)[nH]c1N/N=C/c1c(Cl)cccc1Cl` the listed TGI is 98.1 µM
